system under test: various mutants of kinase EGFR (BaF3 cell lines stably transfected with kinase) (Homo sapiens, UniProt P00533, L858R)
Construct: expressed in transfected cells; host or cells: BaF3
Sequence (P00533 25-1210 L858R): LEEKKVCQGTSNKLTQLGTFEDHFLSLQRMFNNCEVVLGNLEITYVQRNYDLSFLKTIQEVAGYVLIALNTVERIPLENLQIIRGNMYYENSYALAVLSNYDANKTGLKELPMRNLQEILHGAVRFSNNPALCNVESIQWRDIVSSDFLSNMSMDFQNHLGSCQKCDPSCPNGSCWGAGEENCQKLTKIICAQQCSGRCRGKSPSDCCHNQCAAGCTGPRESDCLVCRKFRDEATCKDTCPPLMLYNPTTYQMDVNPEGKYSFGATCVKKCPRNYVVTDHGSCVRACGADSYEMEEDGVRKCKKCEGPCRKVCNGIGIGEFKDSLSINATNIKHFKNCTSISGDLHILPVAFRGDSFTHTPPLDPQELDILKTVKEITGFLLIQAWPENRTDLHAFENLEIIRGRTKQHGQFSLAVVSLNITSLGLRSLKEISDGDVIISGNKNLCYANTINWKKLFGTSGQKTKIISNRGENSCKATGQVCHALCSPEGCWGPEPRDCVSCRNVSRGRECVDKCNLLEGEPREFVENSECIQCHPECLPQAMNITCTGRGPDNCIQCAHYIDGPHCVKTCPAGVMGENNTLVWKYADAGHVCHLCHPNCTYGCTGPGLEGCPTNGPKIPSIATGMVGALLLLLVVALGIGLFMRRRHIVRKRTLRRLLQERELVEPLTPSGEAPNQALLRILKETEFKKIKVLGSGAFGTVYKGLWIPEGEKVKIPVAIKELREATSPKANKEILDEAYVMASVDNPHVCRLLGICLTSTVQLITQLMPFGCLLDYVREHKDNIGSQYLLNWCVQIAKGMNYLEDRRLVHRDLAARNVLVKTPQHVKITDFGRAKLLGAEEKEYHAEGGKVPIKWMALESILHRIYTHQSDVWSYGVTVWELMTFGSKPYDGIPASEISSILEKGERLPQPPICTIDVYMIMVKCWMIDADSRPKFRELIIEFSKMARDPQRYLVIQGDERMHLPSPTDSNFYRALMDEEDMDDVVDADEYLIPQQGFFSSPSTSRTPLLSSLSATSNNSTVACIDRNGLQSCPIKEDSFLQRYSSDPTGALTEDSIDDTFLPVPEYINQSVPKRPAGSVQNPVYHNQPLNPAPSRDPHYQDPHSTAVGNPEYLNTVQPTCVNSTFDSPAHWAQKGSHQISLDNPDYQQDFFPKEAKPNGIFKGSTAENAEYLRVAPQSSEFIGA
test description: Growth inhibitory activity of compounds on BaF3 cell lines stably transfected with kinase (MTS, 48 h)
Assay type: cell-based
condition set: BaF3 cell line stably transfected with EGFR L858R, read-out: L858R growth inhibitory activity IC50
parameter measured: IC50

Ask | # query: IC50 of entry `C=Cc1cc(Nc2ncc(Br)c(Nc3ccc4nccnc4c3N(C3CC3)S(C)(=O)=O)n2)c(OC(F)(F)F)cc1N1CCC(N2CCN(C)CC2)CC1`
Reply | 0.5 to 2.5 µM

Ask | Requested read-out: IC50. Entry: `CCc1cc(Nc2nc(Nc3ccc4nccnc4c3N(C)S(C)(=O)=O)c3occc3n2)c(OC)nc1N1CCC(N2CCN(C)CC2)CC1`
Reply | 0.5 to 2.5 µM

Ask | Field request: IC50 | item: `CCc1cc(Nc2ncc(C)c(Nc3ccc4nccnc4c3N(C)S(C)(=O)=O)n2)c(OC(F)(F)F)cc1N1CCC(N2CCN(C)CC2)CC1`
Reply | 0.05 to 0.5 µM
